target: Furin (108-574-Tev-Flag-His) enzyme (Homo sapiens); construct: Furin (108-574-Tev-Flag-His) enzyme was expressed and purified from CHO cells; TEV cleavage site (C); FLAG (C); His (C); made in house; host or cells: CHO cells; assay: Furin enzyme assay; format: biochemical
Counter-ions that a name gives are not always drawn.
Parameter furin enzyme pIC50: see the listing below.
Answer field: number only, no words.

Here is how some molecules turned out for furin enzyme pIC50.
{"columns": ["MOLECULE", "MEASURED_RESULT"],
 "data": [
  ["CC(=O)NCC1CCN(Cc2cc(Oc3ccc(N4CCC5(CCNC5)C4)nc3)nc(-c3cc(Cl)cc(Cl)c3)c2)CC1 (stereo not shown) [Example 199]", 9.2],
  ["CC(=O)NCC1CCN(Cc2cc(Oc3cnc(N4CCN(CCB(O)O)CC4)nc3)nc(-c3cc(Cl)cc(Cl)c3)c2)CC1 [Example 319, hydrochloride]", 8.9]
]}

Supply measured furin enzyme pIC50 of CNC(=O)NCC1(O)CCN(Cc2cc(Oc3cnc(N4CCN(CCC(N)=O)CC4)nc3)nc(-c3cc(Cl)cc(Cl)c3)c2)CC1 [Example 265] in your reply.
9.4

Let me know recorded furin enzyme pIC50 for CN1CCN(c2ncc(Oc3cc(CN4CC[C@@H]5[C@H](CC4)[C@H]5CC(=O)O)cc(-c4cc(Cl)cc(Cl)c4)n3)cn2)CC1 [Example 224] , thanks.
8.7

Let me know recorded furin enzyme pIC50 for CCN(c1cnc(N2CCN(C)CC2)nc1)c1cc(CN2CCC(CC(=O)O)CC2)cc(-c2cc(Cl)cc(Cl)c2)n1 [Example 389] , thanks.
8.2

Specify furin enzyme pIC50 for CN1CCN(c2ncc(Oc3cc(CN4CCC(OC(C)(C)C(=O)O)CC4)cc(-c4cc(Cl)cc(Cl)c4)n3)cn2)CC1 [Example 225] and stop.
8.5

Respond only with furin enzyme pIC50 recorded for O=C(O)CCC1CCN(Cc2cc(Oc3ccc(N4CCNCC4)nc3)nc(-c3cc(Cl)cc(Cl)c3)c2)CC1 [Example 3, hydrochloride]
8.9

====

EC50 by entry:
target: furin (endogenous protease) in U20S cells (Homo sapiens, UniProt P09958); construct: the endogenous protease cleaves GFP; endogenous in cells; host or cells: U2OS cells transduced with a BacMam reporter; assay: Furin cell-based assay (image-based, Golgi-targeted GFP with BMP10 furin/PCSK cleavage site); details: 24-hour incubation, read-out: furin golgi cell pXC50 (converted)
Sequence (P09958 108-794): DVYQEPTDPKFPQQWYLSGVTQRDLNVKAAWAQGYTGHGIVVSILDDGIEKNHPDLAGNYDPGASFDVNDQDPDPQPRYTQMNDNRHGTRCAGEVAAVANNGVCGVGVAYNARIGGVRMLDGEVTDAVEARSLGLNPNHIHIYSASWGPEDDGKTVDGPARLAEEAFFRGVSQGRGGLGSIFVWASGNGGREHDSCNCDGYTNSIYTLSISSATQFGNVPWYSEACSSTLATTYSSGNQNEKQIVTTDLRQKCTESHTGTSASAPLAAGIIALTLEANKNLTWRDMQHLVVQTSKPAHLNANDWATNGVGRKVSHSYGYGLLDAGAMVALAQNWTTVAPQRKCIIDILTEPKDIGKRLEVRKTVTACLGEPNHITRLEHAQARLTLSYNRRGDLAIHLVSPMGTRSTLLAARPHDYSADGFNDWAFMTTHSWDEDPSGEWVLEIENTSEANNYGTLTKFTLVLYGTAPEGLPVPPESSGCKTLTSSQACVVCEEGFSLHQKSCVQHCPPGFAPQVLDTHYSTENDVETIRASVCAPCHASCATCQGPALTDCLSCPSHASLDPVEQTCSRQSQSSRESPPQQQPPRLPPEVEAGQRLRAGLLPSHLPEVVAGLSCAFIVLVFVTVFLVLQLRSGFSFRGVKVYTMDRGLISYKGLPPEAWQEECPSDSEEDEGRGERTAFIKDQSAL
Structures can show the parent of a compound that is named as a salt.
Express the result in nM but write the number alone.

Answered cases to consult:
{"columns": ["MOLECULE", "EC50 (nM)"],
 "data": [
  ["CNC(=O)NCC1CCN(Cc2cc(Oc3cnc(N4CCN(CCO)CC4)nc3)nc(-c3cc(Cl)cc(Cl)c3)c2)CC1 [Example 47, hydrochloride]", 3.98],
  ["O=C(O)CCC1CCN(Cc2cc(Oc3cnc(N4CCN(CCO)CC4)nc3)cc(-c3cc(Cl)cc(Cl)c3)c2)CC1", 20],
  ["CN1CCN(c2ncc(Oc3cc(CN4CCC(OC5(C(=O)O)CC5)CC4)cc(-c4cc(Cl)cc(Cl)c4)n3)cn2)CC1", 20],
  ["CN1C2CC1CN(c1ncc(Oc3cc(CN4CCC(CC(=O)O)CC4)cc(-c4cc(Cl)cc(Cl)c4)n3)cn1)C2", 39.8],
  ["COCCN1CCN(c2ccc(Oc3cc(CN4CCC(CC(=O)O)CC4)cc(-c4cc(Cl)cc(Cl)c4)n3)cn2)CC1", 20]
]}

Give EC50 for this entry on furin (endogenous protease) in U20S cells (Homo sapiens, UniProt P09958): CC(O)CCN1CCN(c2cnc(Oc3cc(CN4CCC(CC(=O)O)CC4)cc(-c4cc(Cl)cc(Cl)c4)n3)cn2)CC1 (stereo not drawn)
10

# assay system furin (endogenous protease) in U20S cells (Homo sapiens, UniProt P09958): give EC50 of CC(CC1CCN(Cc2cc(Oc3cnc(N4CCNCC4)nc3)nc(-c3cc(Cl)cc(Cl)c3)c2)CC1)C(=O)O (stereo not drawn)
25.1

Fill: EC50 (furin (endogenous protease) in U20S cells (Homo sapiens, UniProt P09958)) for this molecule O=C(O)CC1CCN(Cc2cc(Oc3ccc(N4CCN(CCO)CC4)nc3)nc(-c3cc(Cl)cc(Cl)c3)c2)CC1
20

Write down the reported EC50 (system: furin (endogenous protease) in U20S cells (Homo sapiens, UniProt P09958)) of CC(=O)NCC1CCN(Cc2cc(Oc3ccc(N4CCN(CC5(CO)CC5)CC4)nc3)nc(-c3cc(Cl)cc(Cl)c3)c2)CC1
5.01

====

target: furin (endogenous protease) in U20S cells (Homo sapiens, UniProt P09958); construct: the endogenous protease cleaves GFP; endogenous in cells; host or cells: U2OS cells transduced with a BacMam reporter; assay: Furin cell-based assay (image-based, Golgi-targeted GFP with BMP10 furin/PCSK cleavage site); conditions: 24-hour incubation, read-out: furin golgi cell pXC50 (converted);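 note: Read-out is mean GFP fluorescence of Golgi puncta per cell by high-content imaging, retained when furin inhibited, over an eleven-point 0.00017–10 µM series, four-parameter fit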
Where a name gives a salt, the structure may show the parent alone.
Readings of EC50 for the listed molecules

Worked cases, answers included:
{"columns": ["MOLECULE", "EXPERIMENTAL_ENDPOINT", "MEASURED_RESULT"],
 "data": [
  ["CC(=O)NCC1(O)CCN(Cc2cc(Oc3cnc(N4CCNCC4)c(F)c3)nc(-c3cc(Cl)cc(Cl)c3)c2)CC1 [Example 91, hydrochloride]", "EC50", "39.8 nM"],
  ["CNC(=O)NCC1CCN(Cc2cc(Oc3cnc(N4CCN(C(C)CCS(C)(=O)=O)CC4)nc3)nc(-c3cc(Cl)cc(Cl)c3)c2)CC1 (stereo not drawn)", "EC50", "0.501 nM"],
  ["O=C(O)CC1CCN(Cc2cc(Oc3cnc(N4CCN(CC5(O)CC5)CC4)nc3)nc(-c3cc(Cl)cc(Cl)c3)c2)CC1", "EC50", "20 nM"],
  ["CN1C2CC1CN(c1cnc(Oc3cc(CN4CCC(CC(=O)O)CC4)cc(-c4cc(Cl)cc(Cl)c4)n3)cn1)C2", "EC50", "50.1 nM"],
  ["O=C(O)CCC1CCN(Cc2cc(Oc3ccc(N4CCN(CCO)CC4)nc3)nc(-c3cc(Cl)cc(Cl)c3)c2)CC1", "EC50", "31.6 nM"],
  ["COC(=O)NCC1CCN(Cc2cc(Oc3ccc(N4CCNCC4)nc3)nc(-c3cc(Cl)cc(Cl)c3)c2)CC1 [Example 76, hydrochloride]", "EC50", "10 nM"]
]}

Shifting focus to the molecule that follows.
Using the record for CS(=O)(=O)CCCN1CCN(c2cnc(Oc3cc(CN4CCC(CC(=O)O)CC4)cc(-c4cc(Cl)cc(Cl)c4)n3)cn2)CC1 , state its measured EC50.
25.1 nM

====

biological target: Furin (108-574-Tev-Flag-His) enzyme (Homo sapiens, UniProt P09958); construct: Furin (108-574-Tev-Flag-His) enzyme was expressed and purified from CHO cells; TEV cleavage site (C); FLAG (C); His (C); made in house; host or cells: CHO cells; assay: Furin enzyme assay; format: biochemical
EXPERIMENTAL_ENDPOINT: furin enzyme pIC50
Could you respond with only the numeric value?

Known furin enzyme pIC50 results, listed for orientation:
{"columns": ["COMPOUND", "SYSTEM_NAME", "furin enzyme pIC50"],
 "data": [
  ["CC(=O)NCC1CCN(Cc2cc(Oc3cnc(N4CCN(CCCC(N)=O)CC4)nc3)nc(-c3cc(Cl)cc(Cl)c3)c2)CC1 [Example 96]", "Furin (108-574-Tev-Flag-His) enzyme (Homo sapiens, UniProt P09958)", 9],
  ["CC(=O)NCC1CCN(Cc2cc(Oc3ccc(N4CC[N+](C)(O)CC4)nc3)nc(-c3cc(Cl)cc(Cl)c3)c2)CC1 [Example 178]", "Furin (108-574-Tev-Flag-His) enzyme (Homo sapiens, UniProt P09958)", 8.9],
  ["CC(=O)NCC1CCN(Cc2cc(Oc3cnc(N4CCNCC4)nc3)nc(-c3cc(Cl)cc(Cl)c3)c2)CC1 [Example 92]", "Furin (108-574-Tev-Flag-His) enzyme (Homo sapiens, UniProt P09958)", 8.9],
  ["CNC(=O)NCC1CCN(Cc2cc(Oc3cnc(N4CCN(CC(C)C(N)=O)CC4)nc3)nc(-c3cc(Cl)cc(Cl)c3)c2)CC1 (centres unmarked) [Example 291]", "Furin (108-574-Tev-Flag-His) enzyme (Homo sapiens, UniProt P09958)", 10.7],
  ["COCCN1CCN(c2ccc(Oc3cc(CN4CCC(CNC(C)=O)CC4)cc(-c4cc(Cl)cc(Cl)c4)n3)cn2)CC1 [Example 250]", "Furin (108-574-Tev-Flag-His) enzyme (Homo sapiens, UniProt P09958)", 8.9],
  ["COC(=O)NCC1CCN(Cc2cc(Oc3cnc(N4CCN(CCC(=O)O)[C@@H](C)C4)nc3)nc(-c3cc(Cl)cc(Cl)c3)c2)CC1 [Example 294]", "Furin (108-574-Tev-Flag-His) enzyme (Homo sapiens, UniProt P09958)", 10.1]
]}

Give the measured furin enzyme pIC50 for CC(=O)NCC1CCN(Cc2cc(Oc3cnc(N4CCN(C)CC4)nc3)cc(-c3cc(Cl)cc(Cl)c3)c2)CC1 [Example 68]
9.6

Write down furin enzyme pIC50 measured for item COCCN1CCN(c2ncc(Oc3cc(CN4CCC(CNC(C)=O)CC4)cc(-c4cc(Cl)cc(Cl)c4)n3)cn2)CC1 [Example 245]
10

Identify measured furin enzyme pIC50 associated with CN1CCN(c2ncc(Oc3cc(CN4CCC(CCB(O)O)CC4)cc(-c4cc(Cl)cc(Cl)c4)n3)cn2)CC1 [Example 323]
8.7

Using the record for CCNC(=O)CC1CCN(Cc2cc(Oc3cnc(N4CCN(CCC(=O)O)CC4)nc3)nc(-c3cc(Cl)cc(Cl)c3)c2)CC1 [Example 268] , state its measured furin enzyme pIC50.
9.1

Please report the measured furin enzyme pIC50 for O=C(O)CC1CCN(Cc2cc(Oc3cnc(N4CCN(CCF)CC4)nc3)nc(-c3cc(Cl)cc(Cl)c3)c2)CC1 [Example 236]
8.5
